These entries and their values trace back to the supplement of paper PMC7125110.

B1: glmS ribozyme (parent)
chain: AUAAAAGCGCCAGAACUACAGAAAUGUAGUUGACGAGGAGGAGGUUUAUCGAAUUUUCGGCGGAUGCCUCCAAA

Variants of: B1
Test: kcat; higher = faster cleavage; RNA array
Conditions: with glucosamine-6-phosphate
Variants at the floor of the assay were thinned out.
For each of the variants below, state its kcat.

Check out these entries, answers already filled in.
variantId | kcat
G13C C67U | 4.46e-05 s⁻¹
U30A A42U | 1.63e-05 s⁻¹
G32C A39U | 6.89e-05 s⁻¹
U45C | 0.00494 s⁻¹

Field: kcat. Fill in for each record below.
1. G59A C68A
2. C10U A36G
3. A14C G44C C67G
4. C16G G32U
5. U55C G59A

## Result
1. < 1e-05 s⁻¹
2. < 1e-05 s⁻¹
3. 0.00155 s⁻¹
4. 0.000915 s⁻¹
5. 0.000118 s⁻¹
